test system: U-251; assay: NCI tumour cell line growth inhibition, 48 h
Calls of active or inactive are those of the source. Rule as the data show it: active = GI50 up to about 1.1 µM and inactive = higher.
Could you please report measured GI50 for the items listed next?

Before answering, review these 4 worked examples.
C/C(=N/NC(=O)c1ccccc1S(N)(=O)=O)C(CN1CCCCC1)C(C1=C(O)C2C=CC=CC2OC1=O)c1ccccc1 (stereo not given) | 89.1 µM (inactive)
CCCCCCCCCCCCN1[C@H]2CCC[C@H]2C(O)[C@@H]2CCC[C@@H]21 (stereo not given in full) | 77.4 µM (inactive)
COC(=O)C1=C(O)c2cc3c(cc2[C@H](c2cc(OC)c(OC)c(OC)c2)C1C(=O)OC)OCO3 (stereo not given in full) | 82.8 µM (inactive)
Cn1nc(-c2ccccc2)c(C(=O)/C=C/c2ccc(Cl)cc2)c(N2CCCCC2)c1=O | 1.86 µM (inactive)

In the following, a different compound is considered.
Return reported GI50; argument: `CN(C)CCNC(=O)c1cccc2cc3cc(O)ccc3nc12`
1.36 µM (inactive)

----------
system: HT-29; experiment: NCI tumour cell line growth inhibition, 48 h
Active and inactive are the calls of the source. No stated cut-off is given here; in the data, active = GI50 up to about 1.1 µM and inactive = higher.
Respond with a class label; see Yes = active, No = inactive

Illustrative cases are given below, each with its answer.
CC1CCCC(C(O)CC2CC(=O)N(c3ccccc3)C(=O)C2)C1=O (stereo not drawn) | No
Cc1cc(C)c(S(=O)(=O)N(CCCCCCN)OCCCN)c(C)c1 | No
CCN(CC)CSc1nc2ccccc2[nH]1 | No

Assay outcome for `CCc1nc(Cl)nc(Cl)c1Cl` : what was it?
Yes

Assay outcome for `NS(=O)(=O)c1ccc(NCc2cnc3ccccc3c2)cc1` : what was it?
No

Assay outcome for `COc1ccc(Nc2nc3ccccc3nc2C(=O)O)cc1OC` : what was it?
No

Assay outcome for O=c1ccn(C2OC(COC3CCCCO3)C(OC3CCCCO3)C2OC2CCCCO2)c(=O)n1-c1ccccc1 (stereo not drawn) : what was it?
No

Assay outcome for COc1c2c(cc3c1C(O)N1CC[C@]34[C@H]3O[C@H]3[C@H](OC)C[C@@H]14)OCO2 (stereo partly drawn) : what was it?
No

Assay outcome for O=C(NNc1ccc([N+](=O)[O-])cc1)C1OC(CO)C(O)C1O (stereo not drawn) : what was it?
No

Assay outcome for `N/C(=N\c1c([N+](=O)[O-])cnc2ccccc12)N1CCOCC1` : what was it?
No

Assay outcome for O=c1s[s+]([O-])c2ccccc12 (stereo not drawn) : what was it?
No

Assay outcome for O=C1N/C(=N/N=C/C(O)C(O)C(O)C(O)CO)N/C1=C\c1cccs1 (stereo not drawn) : what was it?
No

Assay outcome for `O=C(NCc1ccc(Cl)c(Cl)c1)c1nc2ccccc2nc1NCc1ccc(Cl)c(Cl)c1` : what was it?
No

Assay outcome for COc1ccc2cc(C(C)C(=O)N3CCOC3=O)ccc2c1 (stereo not drawn) : what was it?
No

Assay outcome for C=CCN(C(=O)OC(C)(C)C)C1=CC2C(C)=CN(S(=O)(=O)c3ccccc3)C2C(OCc2ccccc2)=C1 (stereo not drawn) : what was it?
No

----------
system: MOLT-4; test: NCI tumour cell line growth inhibition, 48 h
Active and inactive are the calls of the source. No stated cut-off is given here; in the data, active = GI50 up to about 1.1 µM and inactive = higher.
measurement-kind: GI50

COC(=O)C1OC2(CCCC3CC32)O[C@H]1C(=O)OC (stereo partly specified) | > 100 µM (inactive)
COC(=O)C1=C(O)c2cc3c(cc2[C@H](c2cc(OC)c(OC)c(OC)c2)C1C(=O)OC)OCO3 (stereo partly specified) | 58.9 µM (inactive)
CC(C)(C)c1ccc(O)c(CN(Cc2cc(C(C)(C)C)ccc2O)C2CCCCC2)c1 | 17.7 µM (inactive)
CC(C)=CC1CCc2ccccc2N1S(=O)(=O)c1ccc(C)cc1 (stereo unspecified) | 1.18 µM (inactive)
C=C1c2nc3ccccc3n2C=C(c2ccc(OC)cc2)N1c1ccc(OC)cc1 | > 100 µM (inactive)
CCCCCCCCCCCCN1[C@H]2CCC[C@H]2C(O)[C@@H]2CCC[C@@H]21 (stereo partly specified) | > 100 µM (inactive)
COc1cc2c(cc1OC)C1c3ccccc3C(C#N)(C2)N(C(=O)c2ccccc2)C1O (stereo unspecified) | 35.2 µM (inactive)
CSc1ncc2c(n1)-c1ccccc1OC2 | 50 µM (inactive)
CN(N)c1cc(=O)[nH]c(=O)[nH]1 | > 100 µM (inactive)
O=c1oc2c(ccc3c(O)cccc32)c2c1CCCC2 | > 100 µM (inactive)

In the following, a different compound is considered.
Return reported GI50; argument: [N-]=[N+]=NC(CI)c1cn([C@H]2C[C@H](O)[C@@H](CO)O2)c(=O)[nH]c1=O (stereo partly specified)
> 100 µM (inactive)

----------
Could you please report measured GI50 for the items listed next?
system: OVCAR-4; assay: NCI tumour cell line growth inhibition, 48 h
Calls of active or inactive are those of the source. Cut-off read from the data, not from the text of the source: active = GI50 up to about 1.1 µM and inactive = higher.

Before answering, review these 3 worked examples.
C/C(=N\NC(=O)c1ccncc1)c1sc(-n2nc(-c3ccccc3)cc2-c2ccccc2)nc1C | > 31.6 µM (inactive)
CCOC(=O)C(NC(=O)c1cccc(Cl)c1)(Nc1ccc(S(=O)(=O)Nc2cc(C)on2)cc1)C(F)(F)F (stereo not given) | > 100 µM (inactive)
CCOc1ccccc1NC(=O)C1=C(C)NC(C)=C(C(=O)Nc2ccccc2OCC)C1c1cccc([N+](=O)[O-])c1 | 14.2 µM (inactive)

# batch: return GI50 for each of the 7 compounds below
1. S=C1/C(=N/c2ccccc2)N(C2CCCCC2)/C(=N\C2CCCCC2)N1c1ccccc1
2. COc1ccc(CC2(O)C3CC4CCC2C4C3)cc1 (stereo not given)
3. Oc1c(C2=NNC(c3ccc(Cl)cc3Cl)C2)ccc2ccccc12 (stereo not given)
4. CC(=O)c1cc2sc3ccccc3c2[nH]1
5. O=C(O)c1cc2c(cc1CC(Cc1ccc3c(c1)CCC3)C(=O)O)CCC2 (stereo not given)
6. CCOC(=O)C(=[N+]=[N-])C(=O)C[N+]12CCN(CC1)CC2
7. Fc1cccc(C2ON=C(c3ccccc3)N2C23CC4CC(CC(C4)C2)C3)c1 (stereo not given)

> 100 µM (inactive)
> 100 µM (inactive)
58.6 µM (inactive)
> 100 µM (inactive)
> 100 µM (inactive)
> 100 µM (inactive)
> 10 µM (inactive)

----------
Could you please report measured GI50 for the items listed next?
test system: MDA-N; assay: NCI tumour cell line growth inhibition, 48 h
Activity calls are given as the source filed them. No stated cut-off is given here; in the data, active = GI50 up to about 1.1 µM and inactive = higher.

Before answering, review these 10 worked examples.
COc1ccc2c(c1)C(N)=C(c1ccccc1OC)C2=O | > 100 µM (inactive)
O=C1/C(=C/c2ccc(Cl)cc2)Oc2cc(O)ccc21 [6-HYDROXY-4'-CHLORO AURONE] | 30.2 µM (inactive)
O=C1N/C(=N/N=C/C(O)C(O)C(O)C(O)CO)N/C1=C\c1cccs1 (stereo unspecified) | > 100 µM (inactive)
COC(=O)C1(OC(=O)Sc2ccccc2)CCN(C)CC1 | 17.8 µM (inactive)
COC(=O)[C@]12C3=C(O)C(=O)C[C@H]1OC[C@H]2C=CC3 | > 100 µM (inactive)
CO[C@@H](c1ccccc1)[C@H](O)[C@](O)(c1ccccc1)P(=O)(OC)OC | > 100 µM (inactive)
O=C1/C(=C/c2ccc(Cl)cc2)NC(=S)N1CN1CCOCC1 | > 100 µM (inactive)
Cc1nc(N)nc2ccccc12 | > 100 µM (inactive)
CC1(c2ccc(Cl)cc2)c2ccccc2C(=O)N1CCCN1C(=O)c2ccccc2C1=O (stereo unspecified) | 58.7 µM (inactive)
O=c1c(Sc2ncccn2)c(Sc2ncccn2)cnn1CCl | 2.17 µM (inactive)

In the following, a different compound is considered.
Return reported GI50; argument: CC(=O)OC1CC2C(=O)CC1(C)C2(C)C (stereo unspecified)
> 100 µM (inactive)

----------
Could you please report measured GI50 for the items listed next?
system: SK-OV-3; test: NCI tumour cell line growth inhibition, 48 h
The source made the active and inactive calls. Cut-off read from the data, not from the text of the source: active = GI50 up to about 1.1 µM and inactive = higher.

Before answering, review these 3 worked examples.
CO[C@@H](c1ccccc1)[C@H](O)[C@](O)(c1ccccc1)P(=O)(OC)OC | > 100 µM (inactive)
COc1cc2c(cc1OC)C1c3ccccc3C(C#N)(C2)N(C(=O)c2ccccc2)C1O (configuration not stated) | 77.3 µM (inactive)
CCOC(=O)C1CCn2c(nc3c(=O)n(C)c(=O)n(C)c32)S1 (configuration not stated) | > 100 µM (inactive)

# batch: return GI50 for each of the 2 compounds below
1. Cc1c(C(=O)/C=C/c2ccccc2)[n+]([O-])c2ccccc2[n+]1[O-]
2. S=C1/C(=N/c2ccccc2)N(C2CCCCC2)/C(=N\C2CCCCC2)N1c1ccccc1

1. 20.1 µM (inactive)
2. > 100 µM (inactive)

# batch: return GI50 for each of the 4 compounds below
1. COc1ccc(-n2c(-c3ccccc3)cc(-c3cccs3)c2-c2cccs2)cc1
2. c1ccc(N/N=C2\NN=C(c3ccccc3)CS2)cc1
3. Cc1c(NC(=S)N/N=C\C(=N/NC(=S)Nc2c(C)n(C)n(-c3ccccc3)c2=O)c2ccccc2)c(=O)n(-c2ccccc2)n1C
4. CCOc1ccccc1NC(=O)C1=C(C)NC(C)=C(C(=O)Nc2ccccc2OCC)C1c1cccc([N+](=O)[O-])c1

1: > 100 µM (inactive); 2: 14.9 µM (inactive); 3: > 100 µM (inactive); 4: > 100 µM (inactive)

# batch: return GI50 for each of the 3 compounds below
1. c1ccc(-c2c(-c3[nH]c4ccccc4c3-c3ccccc3)[nH]c3ccccc23)cc1
2. COC(=O)C(Cc1ccccc1)NC(=O)C(CNC(=O)OCc1ccccc1)C(=O)OCc1ccccc1 (configuration not stated)
3. CC1(C)CC(=O)C(=CN2C(=O)CNC2=S)C(=O)C1

1: 8.15 µM (inactive); 2: 59.7 µM (inactive); 3: > 100 µM (inactive)
